All values here come from ChEMBL document CHEMBL1126004.

ASSAY DETAILS: Compound was evaluated for relative ratio (Kcat/Km) between catalyst constant (Kcat) and Michaelis-Menten constant (Km) in a reaction with tryptophan indole-lyase (tryptophanase) from Escherichia coli
RECORDED ENDPOINT: k cat/Km (%)

N[C@@H](Cc1c[nH]c2ccccc12)C(=O)O	100

[P] N[C@@H](Cc1c[nH]c2c(F)cc(F)cc12)C(=O)O
[Q] N[C@@H](Cc1c[nH]c2c(F)ccc(F)c12)C(=O)O
[R] N[C@@H](Cc1c[nH]c2c(F)cccc12)C(=O)O
Query: List by increasing k cat/Km. List the labels according to the requested ordering.
Response: Q, R, P
(Q: 6%, R: 14%, P: 30%)
